target: recombinant human aromatase (Homo sapiens, UniProt P11511); construct: purchased Bio Vision; assay: Fluorometric aromatase (CYP19A) inhibitor screening kit (Bio Vision); format: biochemical; conditions: fluorometric kit, letrozole as reference; read-out: IC50 Aromatase Inhibition
Sequence (P11511 whole entry): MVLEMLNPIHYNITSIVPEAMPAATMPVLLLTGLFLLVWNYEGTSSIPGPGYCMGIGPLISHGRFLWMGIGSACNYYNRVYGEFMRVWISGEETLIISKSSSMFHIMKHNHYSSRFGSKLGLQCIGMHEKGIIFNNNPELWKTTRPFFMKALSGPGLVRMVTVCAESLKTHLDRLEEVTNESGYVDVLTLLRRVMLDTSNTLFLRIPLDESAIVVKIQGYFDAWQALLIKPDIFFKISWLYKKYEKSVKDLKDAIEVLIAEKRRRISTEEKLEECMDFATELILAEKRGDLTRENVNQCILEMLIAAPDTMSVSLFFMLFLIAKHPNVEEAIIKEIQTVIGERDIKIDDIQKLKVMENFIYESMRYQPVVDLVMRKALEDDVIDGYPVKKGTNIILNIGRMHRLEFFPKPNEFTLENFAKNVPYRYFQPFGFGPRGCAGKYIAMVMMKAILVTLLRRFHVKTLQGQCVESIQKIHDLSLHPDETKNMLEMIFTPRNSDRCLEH
pIC50: −log10 of the molar value.
ENDPOINT LABEL: pIC50

Fc1ccc(C2=Nn3c(nnc3-c3ccc(-c4nc5ccccc5[nH]4)cc3)SC2)cc1 [Compound 5c]: 5.77
N#Cc1ccc(C2=Nn3c(nnc3-c3ccc(-c4nc5cc(Cl)ccc5[nH]4)cc3)SC2)cc1 [Compound 5m]: 5.81
Fc1ccc(C2=Nn3c(nnc3-c3ccc(-c4nc5cc(Cl)ccc5[nH]4)cc3)SC2)cc1 [Compound 5k]: 5.64
